Reference source for all entries: patent US7074789B2

# Experimental Target: AKT (Homo sapiens, UniProt Q9Y243)
# Construct: Kinases are expressed as either kinase domains or full length constructs; made in house
# Sequence (Q9Y243 whole entry, the tested form may be a part): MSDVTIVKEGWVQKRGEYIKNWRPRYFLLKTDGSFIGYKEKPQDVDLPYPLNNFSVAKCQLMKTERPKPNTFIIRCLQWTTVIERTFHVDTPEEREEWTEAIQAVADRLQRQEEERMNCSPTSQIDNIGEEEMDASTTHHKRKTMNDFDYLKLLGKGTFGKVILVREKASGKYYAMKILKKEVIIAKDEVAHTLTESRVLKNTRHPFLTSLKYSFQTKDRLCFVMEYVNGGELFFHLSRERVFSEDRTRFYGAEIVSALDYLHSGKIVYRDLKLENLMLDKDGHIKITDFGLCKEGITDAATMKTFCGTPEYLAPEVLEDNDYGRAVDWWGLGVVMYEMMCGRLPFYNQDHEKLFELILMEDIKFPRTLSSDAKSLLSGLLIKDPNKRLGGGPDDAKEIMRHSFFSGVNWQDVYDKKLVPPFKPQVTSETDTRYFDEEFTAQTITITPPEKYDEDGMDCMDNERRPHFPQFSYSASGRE
# Assay Overview: Kinase inhibition assay (33P transfer), AKT
# Type: biochemical
# Experimental Setup: Table 2, kinase inhibition class; read-out: AKT3-1
pIC50: −log10 of the molar value.
Measurement Name: pIC50

Sample records with pIC50:
COc1cc(Nc2ncnc(Nc3cc(C)nn3C)n2)cc(OC)c1OC    < 4.92
CC(C)(C)c1cc(Nc2ncnc(Nc3ccc(CO)cc3)n2)[nH]n1    < 4.88
COc1cc(Nc2ncnc(N3CCc4ccccc43)n2)cc(OC)c1OC    < 4.93
CCc1cccc(Nc2ncnc(-n3c(N)nc4ccccc43)n2)c1    < 4.87
COc1ccc(Cl)cc1Nc1ncnc(Nc2cc(OC)c(OC)c(OC)c2)n1    < 4.97
CCN1CCCC1CNc1ncnc(Nc2ccc(OC)c(OC)c2)n1 (stereo not drawn)    < 4.90
COc1cc(Nc2ncnc(Nc3ccc(F)cc3)n2)cc(OC)c1OC    < 4.92
COC(=O)Cc1cccc(Nc2ncnc(Nc3cccc(Br)c3)n2)c1    < 4.96

Please find the next compound below.
Form field: reported pIC50 of `COc1cc(Nc2ncnc(Nc3ccc(N)cc3)n2)cc(OC)c1OC`
4.91 to 5.02
